Source: patent US20210070748A1

- Target Or Test System: ITK (Homo sapiens, UniProt Q08881)
- Sequence (Q08881 whole entry): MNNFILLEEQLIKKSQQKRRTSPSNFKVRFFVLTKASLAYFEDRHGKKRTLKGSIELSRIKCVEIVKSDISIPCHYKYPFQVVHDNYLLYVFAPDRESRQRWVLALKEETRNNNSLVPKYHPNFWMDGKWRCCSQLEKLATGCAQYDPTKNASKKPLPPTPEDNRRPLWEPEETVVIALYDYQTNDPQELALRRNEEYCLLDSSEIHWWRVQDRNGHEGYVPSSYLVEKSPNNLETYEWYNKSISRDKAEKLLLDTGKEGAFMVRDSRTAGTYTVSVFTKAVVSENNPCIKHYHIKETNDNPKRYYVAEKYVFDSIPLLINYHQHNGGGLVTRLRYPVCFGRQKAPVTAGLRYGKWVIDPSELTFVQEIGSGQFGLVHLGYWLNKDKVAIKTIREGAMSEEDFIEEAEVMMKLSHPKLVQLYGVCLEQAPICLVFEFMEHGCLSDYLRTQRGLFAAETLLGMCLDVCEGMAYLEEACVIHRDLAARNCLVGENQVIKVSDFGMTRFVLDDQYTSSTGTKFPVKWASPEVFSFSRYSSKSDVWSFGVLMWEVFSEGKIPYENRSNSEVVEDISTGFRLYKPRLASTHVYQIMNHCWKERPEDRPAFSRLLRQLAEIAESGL
- Assay Procedure: Inhibition of a panel of kinases, in vitro HotSpot kinase assay: ITK
- Assay type: biochemical
- Stated Conditions: D-compounds panel data; 1 μM ATP
pIC50: −log10 of the molar value.
Readout Type: pIC50

>  <Compound>
CNC(=O)N[C@@H]1CCCN(c2cnc(C(N)=O)c(Nc3cnn(C)c3)n2)[C@@H]1C

>  <Readout Type>
pIC50

>  <Result>
6.00 to 7.00

$$$$
>  <Compound>
C[C@@H]1[C@H](NC(=O)c2ccc3nn(C)cc3c2)CCCN1c1cnc(C(N)=O)c(Nc2cnn(C)c2)n1

>  <Readout Type>
pIC50

>  <Result>
6.00 to 7.00

$$$$
>  <Compound>
C[C@@H]1[C@H](NC(=O)c2ccc(C3CC3)nc2)CCCN1c1cnc(C(N)=O)c(Nc2ccc(OC3CCC(F)(F)CC3)cc2)n1

>  <Readout Type>
pIC50

>  <Result>
< 5.00

$$$$
>  <Compound>
C[C@@H]1[C@H](NC(=O)c2ccc(C3CC3)cc2)CCCN1c1cnc(C(N)=O)c(Nc2cnn(C(F)F)c2)n1

>  <Readout Type>
pIC50

>  <Result>
5.00 to 6.00

$$$$
>  <Compound>
Cc1nn(C)cc1Nc1nc(N2CCC[C@@H](NC(=O)c3ccc(C4CC4)cc3)[C@H]2C)cnc1C(N)=O

>  <Readout Type>
pIC50

>  <Result>
< 5.00

$$$$

**Q:** What value of pIC50 has been recorded for this entry: CN(C)C(=O)N[C@@H]1CCCN(c2cnc(C(N)=O)c(Nc3ccc(C4(C)CCN(C5CCCC5)CC4)cc3)n2)[C@H]1CO
**A:** 6.00 to 7.00

**Q:** What value of pIC50 has been recorded for this entry: C[C@@H]1[C@H](NC(=O)c2coc(C3CC3)n2)CCCN1c1cnc(C(N)=O)c(Nc2cnn(C)c2)n1
**A:** 6.00 to 7.00

---

- Target Or Test System: TEC (Homo sapiens)
- Sequence (P42680 1-631): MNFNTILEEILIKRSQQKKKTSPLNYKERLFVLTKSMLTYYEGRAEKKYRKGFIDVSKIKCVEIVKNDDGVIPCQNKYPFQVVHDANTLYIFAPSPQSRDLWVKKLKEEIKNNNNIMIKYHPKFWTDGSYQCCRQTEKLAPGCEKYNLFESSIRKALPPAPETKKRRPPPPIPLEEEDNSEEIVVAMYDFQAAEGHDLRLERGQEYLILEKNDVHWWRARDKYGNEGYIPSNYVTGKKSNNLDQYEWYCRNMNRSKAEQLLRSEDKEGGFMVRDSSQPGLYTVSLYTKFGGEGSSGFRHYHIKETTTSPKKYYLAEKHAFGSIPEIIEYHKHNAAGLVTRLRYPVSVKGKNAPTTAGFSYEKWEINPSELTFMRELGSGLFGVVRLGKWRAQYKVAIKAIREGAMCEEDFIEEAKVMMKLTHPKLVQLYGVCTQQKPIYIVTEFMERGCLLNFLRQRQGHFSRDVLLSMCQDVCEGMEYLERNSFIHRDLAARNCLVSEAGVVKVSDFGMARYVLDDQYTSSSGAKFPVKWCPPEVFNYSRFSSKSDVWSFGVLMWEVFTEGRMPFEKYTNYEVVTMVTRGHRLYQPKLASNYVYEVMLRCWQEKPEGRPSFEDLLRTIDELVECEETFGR
- Assay Procedure: Inhibition of a panel of kinases, in vitro HotSpot kinase assay: TEC
- Type: biochemical
- Stated Conditions: Table 13, A compounds; 1 μM ATP
pIC50: −log10 of the molar value.
Recorded pIC50 values for a group of compounds are listed next.

Consider the reported pIC50 for these compounds:
>  <Smiles Entry>
C[C@@H]1[C@H](NC(=O)c2ccc(C3CC3)cc2F)CCCN1c1cnc(C(N)=O)c(Nc2ccc(N3CCN(C4CCCC4)CC3)cc2)n1

>  <pIC50>
7.00 to 8.00

$$$$
>  <Smiles Entry>
C[C@@H]1[C@H](NC(=O)c2ccc(C3CC3)cc2F)CCCN1c1cnc(C(N)=O)c(Nc2cc(CN3CCOCC3)ns2)n1

>  <pIC50>
7.00 to 8.00

$$$$
>  <Smiles Entry>
C[C@@H]1[C@H](NC(=O)c2ccc(C3CC3)cc2F)CCCN1c1cnc(C(N)=O)c(Nc2ccc(CN3CCN(C)CC3)cc2)n1

>  <pIC50>
7.00 to 8.00

$$$$
>  <Smiles Entry>
Cc1c(Nc2nc(N3CCC[C@@H](NC(=O)c4ccc(C5CC5)cc4)[C@H]3C)cnc2C(N)=O)cnn1C

>  <pIC50>
5.00 to 6.00

$$$$
>  <Smiles Entry>
C[C@@H]1[C@H](NC(=O)c2cc3c(n2C)CC(C)(C)C3)CCCN1c1cnc(C(N)=O)c(Nc2cnn(C)c2)n1

>  <pIC50>
7.00 to 8.00

$$$$

**Q:** What value of pIC50 has been recorded for this entry: COCCn1cc(Nc2nc(N3CCC[C@@H](NC(=O)c4ccc(C5CC5)cc4)[C@H]3C)cnc2C(N)=O)cn1
**A:** 6.00 to 7.00

**Q:** What value of pIC50 has been recorded for this entry: C[C@@H]1[C@H](n2ccc3cc(C4CC4)ccc3c2=O)CCCN1c1cnc(C(N)=O)c(Nc2ccc(N3CCN(C)CC3)cc2)n1
**A:** 7.00 to 8.00

**Q:** What value of pIC50 has been recorded for this entry: C[C@@H]1[C@H](NC(=O)c2ccc(C3CC3)cc2F)CCCN1c1cnc(C(N)=O)c(Nc2ccc(S(=O)(=O)N3CCCC3)cc2)n1
**A:** 6.00 to 7.00

**Q:** What value of pIC50 has been recorded for this entry: C[C@@H]1[C@H](NC(=O)c2ccc(C3CC3)nc2)CCCN1c1cnc(C(N)=O)c(Nc2cnn(C)c2)n1
**A:** 7.00 to 8.00

**Q:** What value of pIC50 has been recorded for this entry: CN1CCN(c2ccc(Nc3nc(N4CCC[C@@H](n5ccc6cc(C7CC7)ccc6c5=O)C4)cnc3C(N)=O)cc2)CC1
**A:** 7.00 to 8.00

**Q:** What value of pIC50 has been recorded for this entry: C[C@@H]1[C@H](NC(=O)c2ccc(C3CC3)c(Cl)c2)CCCN1c1cnc(C(N)=O)c(Nc2ccc(N3CCN(C)CC3)cc2)n1
**A:** 6.00 to 7.00
